tested on: OVCAR-8 ovarian; test: NCI-60 one-dose screen, 48 h (100 = growth as untreated, 0 = no growth, -100 = all killed); conditions: 10 µM unless noted
Compounds without any hit were thinned out: in the full panel of roughly 83,000, 20% have a hit.
quantity_measured: growth (%)

- CC1CCC(C)N(C)C1 (stereo not given): 105
- CCO/C=N/C1=C(C#N)C(c2ccc(Cl)cc2)c2c(c3ccccc3n(C)c2=O)O1 (stereo not given): 86.3
- O=C(NCCNc1nccc(-n2ccc3cccnc32)n1)c1ccc(C(F)(F)F)cc1: 103
- COc1ccc(C2CC(c3ccc(OC)cc3OC)=NN2c2ccc(S(N)(=O)=O)cc2)cc1 (stereo not given): 77
- COC(=O)c1cc2cc(-c3ccc(OC)cc3)cnc2[nH]1: 8.62
- N[C@H]1CN(C(=O)c2cc3cc(Br)c(F)c(F)c3[nH]2)C[C@@H]1O: 100
- O=S(=O)(NCCNc1nccc(-c2c(-c3ccc(F)cc3)nc3sccn23)n1)c1ccc(F)cc1: 68.2
- COc1ccc(C(=O)c2cc(OC)c(OC)c(OC)c2OC)cc1O: 61.3
- O=c1ccn(-c2ncnc3nc[nH]c23)cc1: 101
- COc1ccc(/C=C2\CN(Cc3cn(CCNc4ccnc5cc(Cl)ccc45)nn3)C/C(=C\c3ccc(OC)c(OC)c3)C2=O)cc1OC: -3.77

----------
test system: RPMI-8226 leukemia; assay: NCI-60 one-dose screen, 48 h; conditions: 10 µM unless noted
The panel holds about 83,000 compounds, 20% with a hit somewhere; the sample as a whole holds those more often. Active and inactive are the calls of the source. Rule for the calls: active = growth percent below 10; inactive = the rest.
Possible outcomes: active, inactive

* COc1ccc(-c2c(N)n[nH]c2-c2cc(OC)c3c(c2)OCCO3)cc1 | inactive
* COc1ccc(C(=O)NC(=O)Nc2cc3c(cc2F)/C(=C/c2[nH]c(C)c(CCC(=O)O)c2C)C(=O)N3)c(F)c1 | active
* CC(=O)Nc1scc[n+]1Cc1ccccc1 | inactive
* COc1c2occc2c(OC)c2c(=O)c(-c3cc(-c4ccc(F)cc4)c(C#N)c(N)n3)c(C)oc12 | inactive
* COc1ccc(-c2nc(N3CCCC3=O)sc2Br)cc1OC | inactive
* COc1ccc(-c2nc(/C=C3/C(=O)Nc4ccc(F)cc43)c3ccccn23)cc1 | inactive
* Nc1nc(-c2ccccc2)c(CCCOc2ccc(NC(=O)CBr)cc2)c(=O)[nH]1 | inactive
* CCCCOc1ccc(/C=C2/SC(N3CCCC3)=NC2=O)cc1 | inactive
* COc1ccc(C(=O)c2cc(OC)c3c(c2)OCO3)cc1O | inactive
* COc1ccc(C(=O)N2NC(=O)/C(=C/c3ccc(Br)cc3)N=C2c2ccccc2)cc1 | inactive
* COc1ccc(CN2CCc3c(Sc4ccccc4)nc(N)nc3C2=O)c(OC)c1 | active
* CO[C@H]1NC(=O)N(S(=O)(=O)c2ccc(Cl)cc2)[C@@H]1OC | inactive
* CC(C)(C)n1cc(-c2ccnc(NCCCNS(=O)(=O)c3ccc(C(F)(F)F)cc3)c2)c(-c2cccc(O)c2)n1 | active
* COc1cc(NC(N)=NCCC(C)(C)c2ccc(C(F)(F)F)cc2)ncc1C#N | active
* O=C(N/N=C/C=C\c1ccccc1)C(=O)N/N=C/C=C/c1ccccc1 | inactive
* C=C1C(=O)O[C@H]2[C@H]1CC/C(COC(=O)NCc1ccccc1OC)=C\CC[C@@]1(C)O[C@@H]21 | inactive
* Oc1ccc2cc(Br)ccc2c1-c1c(O)ccc2cc(Br)ccc12 | inactive
* O=C(NS(=O)(=O)c1ccc2ccccc2c1)n1cc(-c2ccncc2)c(-c2ccc(Cl)c(O)c2)n1 | inactive
* Cn1ncc2c(Sc3ccc(Cl)cc3)ncnc21 | inactive
* COc1ccc(C(=O)N2NC(=O)/C(=C/c3ccc(F)cc3)N=C2c2ccccc2)cc1 | inactive
* Cc1c(C(=N)C(C#N)C#N)c(=N)oc2c1ccc1ccccc12 | inactive
* CCCCCCCCCCCC(=O)NCCC[N+](C)(C)CC(=O)[O-] | inactive
* CC(C)(C)n1cc(-c2ccnc(NCCCNS(=O)(=O)c3ccc(Cl)cc3)c2)c(-c2cccc(O)c2)n1 | active
* CCCCCCCCCCCCCCCCCCNC(=O)[C@H]1CSC(c2ccc(OC)cc2O)N1 (stereo partly specified) | inactive
* CCCCN(CCCC)C(=O)CC | inactive
* CC(C)(C)Nc1c(-c2cccs2)nc2ncccn12 | inactive
* CCOC(=O)c1c(NS(=O)(=O)c2ccc(C)cc2)sc2c1CCC1(C2)OCCO1 | inactive
* COc1cc(C2C3=C(COC3=O)Nc3cc4c(cc32)OCO4)cc2c1OCO2 (stereo unspecified) | inactive
* COc1cc(/C=C/C(=O)c2ccc(Nc3ncnc4cc(OC)c(OC)cc34)cc2)cc(OC)c1 | active
* COc1ccc(-n2c(=S)sc3c(Cl)nc(C)nc32)c(OC)c1 | inactive
* COc1ccc(-c2nc(/C=N/Nc3cc(C)nc4ccc(Cl)cc34)c(C)o2)cc1 | active
* COc1ccc2c(c1)cn1c3ccc(OC)cc3[nH]c(=O)c21 | active
* Clc1cccc(-c2cc(-c3ccc4c(c3)OCCO4)[nH]n2)c1 | inactive
* Fc1ccc(Nc2ncnc3ccc(-c4cnc5[nH]ccc5c4)cc23)cc1Cl | active
* CCO/C=N/C1=C(C#N)C(c2ccc(Cl)cc2)c2c(c3ccccc3n(C)c2=O)O1 (stereo unspecified) | inactive
* COc1ccc(Nc2[nH]n3c(=O)cc(-c4ccccc4)nc3c2C(=O)Nc2ccc(C)cc2)c(OC)c1 | inactive
* CN(CCCCN(C[C@H]1Cc2ncccc2CN1)[C@H]1CCCc2cccnc21)C1CCC(F)(F)CC1 | inactive
* Cc1ccc(-c2nc(C(Cl)Cl)n3nc(-c4ccccc4)cc3n2)cc1 | active
* O=C(Oc1ccccc1[N+](=O)[O-])C1CCCN1C(=O)OCc1ccccc1 (stereo unspecified) | inactive
* O=C1/C(=C/c2ccc(Cl)cc2)CN(C(=O)CCN2CCC(=NO)CC2)C/C1=C\c1ccc(Cl)cc1 | active
* O=C1CS/C(=N\Nc2cc(=O)[nH]c3ccccc23)N1c1ccccc1 | inactive
